test-system: ScAbp1
method-description: SPOT peptide array binding signal intensity (averaged, normalized) (arbitrary units (background-subtracted, floor 0; scale differs between SH3 domains)); higher = stronger binding of the SH3 domain to the peptide
Listed here: items and their measured SPOT peptide array binding signal intensity.

Below are worked cases with known answers.
- binder: "TPEIPPPLPPKIMVH"
  result: "≤ 0"
- binder: "NAGIRPKFILALNDE"
  result: "≤ 0"

API: the following record is the query input.
Kindly note the recorded SPOT peptide array binding signal intensity for DGNEEKPLLPTRPNK , which is ≤ 0

Source: the supplement of paper PMC4466140
